# Experimental Target: T1, human CCR8 (human, UniProt P51685 1-355)
# T1 construct: whole, on cells; construct used for the overexpressing cell lines is not described; also called hCCR8
# T1 sequence (P51685 whole entry): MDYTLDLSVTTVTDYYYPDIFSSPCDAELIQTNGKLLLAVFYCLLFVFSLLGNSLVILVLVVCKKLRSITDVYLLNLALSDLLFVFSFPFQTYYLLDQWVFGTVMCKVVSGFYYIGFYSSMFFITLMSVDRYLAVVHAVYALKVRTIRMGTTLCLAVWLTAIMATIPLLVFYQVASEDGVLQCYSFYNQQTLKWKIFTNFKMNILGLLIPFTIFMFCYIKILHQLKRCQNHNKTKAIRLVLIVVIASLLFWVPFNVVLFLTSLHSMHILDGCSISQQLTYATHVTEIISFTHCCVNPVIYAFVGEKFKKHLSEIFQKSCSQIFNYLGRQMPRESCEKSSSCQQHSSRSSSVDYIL
# Test: FACS, CHO-K1-hCCR8 cells, Fab

Binder: PR005787 (Fab, V domains shown) VH: EVQLVESGGGLVKPGGSLRLSCAASGFTFSTYAMNWVRQAPGKGLEWVGRIRSKSNYYATYYADSVKDRFTISRDDSKSTLYLQMNSLKTEDTAVYYCVRGKEIGKYYAMDFWGQGTTVTVSS VL: DIVMTQSPLSLPVTLGQPASISCRSSKSLLHSNAKIYLYWFQQRPGQSPRLLIYRMSNLASGVPDRFSGSGSGTDFTLKISRVEAEDVGVYYCMQHLEYPLTFGQGTKLEIKR
EC50, pM: 740
